Below is a list of entries, each paired with its recorded pIC50 value.
- MEASURED_ON: human PPARγ (Homo sapiens, UniProt P37231)
- Construct: 1.6 kb of fragment of the prepared plasmid pGEMT-hPPARg2 including human PPARγ gene
- ASSAY_OVERVIEW: Human PPARγ antagonist assay (luciferase reporter in transfected CV-1 cells)
- TEST_CONDITIONS: CV-1 cells expressing human PPARγ and RXRα with reporter plasmid; pioglitazone 1 μM as stimulant; 24 hours; read-out: Human PPARγ antagonist activities, Inhibition IC50
Just the number, please; pIC50 means minus log10 of the concentration in mol/L.

Known results for compounds:
COc1cc(Cn2c3ccccc3c3c(O[C@H](C(=O)O)C(C)C)cccc32)ccc1OCc1nc(-c2ccccc2)oc1C [Example 40]; 6.51
CCC(Oc1cccc2c1c1ccccc1n2Cc1ccc(OCc2nc(-c3ccccc3)oc2C)c(OC)c1)C(=O)[O-].[Na+] (stereo not shown) [Example 31]; 6.39

Query COc1cc(Cn2c3ccccc3c3c(O[C@H](C)C(=O)[O-])cccc32)ccc1OCc1nc(-c2ccccc2)oc1C.[Na+] [Example 43] yields pIC50 of 5.95

Query COc1cc(Cn2c3ccccc3c3c(OCC(=O)O)cccc32)ccc1OCc1nc(-c2ccccc2)oc1C [Example 1] yields pIC50 of 5.50

Query COc1cc(Cn2c3ccccc3c3c(OCCC(C)C(=O)O)cccc32)ccc1OCc1nc(-c2ccccc2)oc1C (single isomer, unassigned) [Example 53] yields pIC50 of 6.42

Query COc1cc(Cn2c3ccccc3c3c(OC(C)C(=O)O)cccc32)ccc1OCc1nc(-c2ccccc2)oc1C (racemic) [Example 4] yields pIC50 of 6.03

Query COc1cc(Cn2c3ccccc3c3c(OC(C(=O)O)c4ccccc4)cccc32)ccc1OCc1nc(-c2ccco2)oc1C (racemic) [Example 6] yields pIC50 of 6.04

----------
Below is a list of entries, each paired with its recorded pIC50 value.
- MEASURED_ON: human PPARγ (Homo sapiens)
- Construct: 1.6 kb of fragment of the prepared plasmid pGEMT-hPPARg2 including human PPARγ gene
- Sequence (P37231 1-505): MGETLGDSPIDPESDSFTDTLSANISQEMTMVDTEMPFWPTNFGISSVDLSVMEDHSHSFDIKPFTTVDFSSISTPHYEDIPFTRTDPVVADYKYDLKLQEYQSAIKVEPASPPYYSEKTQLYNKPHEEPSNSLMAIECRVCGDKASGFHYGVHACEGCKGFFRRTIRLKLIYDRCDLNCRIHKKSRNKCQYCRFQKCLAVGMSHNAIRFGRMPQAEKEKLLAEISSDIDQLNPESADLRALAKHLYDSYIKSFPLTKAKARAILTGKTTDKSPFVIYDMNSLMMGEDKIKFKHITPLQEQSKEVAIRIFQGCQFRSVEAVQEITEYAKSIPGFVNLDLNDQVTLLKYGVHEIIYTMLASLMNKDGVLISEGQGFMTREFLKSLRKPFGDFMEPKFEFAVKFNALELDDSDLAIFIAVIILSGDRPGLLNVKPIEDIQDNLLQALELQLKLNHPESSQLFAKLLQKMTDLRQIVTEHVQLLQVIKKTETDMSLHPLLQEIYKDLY
- Sequence (P19793 1-462 partner): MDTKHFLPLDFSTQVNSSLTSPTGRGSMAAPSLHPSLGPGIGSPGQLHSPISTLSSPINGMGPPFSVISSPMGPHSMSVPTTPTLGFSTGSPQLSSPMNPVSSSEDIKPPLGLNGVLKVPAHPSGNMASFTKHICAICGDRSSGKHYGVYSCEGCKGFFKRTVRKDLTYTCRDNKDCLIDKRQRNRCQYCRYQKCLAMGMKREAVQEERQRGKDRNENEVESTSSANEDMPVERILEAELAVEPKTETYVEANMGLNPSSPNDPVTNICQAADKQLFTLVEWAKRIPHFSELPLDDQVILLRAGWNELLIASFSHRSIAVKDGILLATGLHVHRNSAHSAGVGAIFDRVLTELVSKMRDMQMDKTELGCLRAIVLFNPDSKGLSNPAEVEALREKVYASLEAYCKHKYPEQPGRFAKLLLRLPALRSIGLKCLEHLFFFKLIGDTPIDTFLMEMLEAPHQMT
- ASSAY_OVERVIEW: Human PPARγ antagonist assay (luciferase reporter in transfected CV-1 cells)
- TEST_CONDITIONS: CV-1 cells expressing human PPARγ and RXRα with reporter plasmid; pioglitazone 1 μM as stimulant; 24 hours; read-out: Human PPARγ antagonist activities, Inhibition IC50
Just the number, please; pIC50 means minus log10 of the concentration in mol/L.

Known results for molecules:
COc1cc(Cn2c3ccccc3c3c(OCC(=O)O)cccc32)ccc1OCc1nc(-c2ccccc2)oc1C [Example 29]; 5.61
COc1cc(Cn2c3ccccc3c3c(OC(C)(C)C(=O)[O-])cccc32)ccc1OCc1nc(-c2ccccc2)oc1C.[Na+]; 6.40
COc1cc(Cn2c3ccccc3c3c(OCCC(C)C(=O)O)cccc32)ccc1OCc1nc(-c2ccccc2)oc1C (single isomer, unassigned) [Example 52]; 6.76
COc1cc(Cn2c3ccccc3c3c(OC(C)(C)C(=O)O)cccc32)ccc1OCc1nc(-c2ccncc2)oc1C; 5.29

Query COc1cc(Cn2c3ccccc3c3c(OC(C)(C)C(=O)O)cccc32)ccc1OCc1nc(-c2ccco2)oc1C yields pIC50 of 5.72

Query COc1cc(Cn2c3ccccc3c3c(OC(C(=O)O)C(C)C)cccc32)ccc1OCc1nc(-c2ccccc2)oc1C (racemic) yields pIC50 of 6.40

Query COc1cc(Cn2c3ccccc3c3c(OCCCC(=O)O)cccc32)ccc1OCc1nc(-c2ccccc2)oc1C [Example 12] yields pIC50 of 6.14

Query CCC(Oc1cccc2c1c1ccccc1n2Cc1ccc(OCc2nc(-c3ccccc3)oc2C)c(OC)c1)C(=O)O (racemic) yields pIC50 of 6.45

Query COc1cc(Cn2c3ccccc3c3c(OC(C)(C)C(=O)O)cccc32)ccc1OCc1nc(-c2ccccc2)oc1C yields pIC50 of 6.38

Query COc1cc(Cn2c3ccccc3c3c(OC(C(=O)O)c4ccccc4)cccc32)ccc1OCc1nc(-c2ccccc2)oc1C (racemic) [Example 36] yields pIC50 of 6.22

Query COc1cc(Cn2c3ccccc3c3c(OCCCCC(=O)O)cccc32)ccc1OCc1nc(-c2ccccc2)oc1C yields pIC50 of 5.79

Query COc1cc(Cn2c3ccccc3c3c(O[C@@H](C(=O)O)C(C)C)cccc32)ccc1OCc1nc(-c2ccccc2)oc1C yields pIC50 of 6.34

Query COc1cc(Cn2c3ccccc3c3c(OCc4ccc(C(=O)O)cc4)cccc32)ccc1OCc1nc(-c2ccccc2)oc1C yields pIC50 of 6.00
